# testedOn: furin, P09958
# Sequence (P09958 whole entry): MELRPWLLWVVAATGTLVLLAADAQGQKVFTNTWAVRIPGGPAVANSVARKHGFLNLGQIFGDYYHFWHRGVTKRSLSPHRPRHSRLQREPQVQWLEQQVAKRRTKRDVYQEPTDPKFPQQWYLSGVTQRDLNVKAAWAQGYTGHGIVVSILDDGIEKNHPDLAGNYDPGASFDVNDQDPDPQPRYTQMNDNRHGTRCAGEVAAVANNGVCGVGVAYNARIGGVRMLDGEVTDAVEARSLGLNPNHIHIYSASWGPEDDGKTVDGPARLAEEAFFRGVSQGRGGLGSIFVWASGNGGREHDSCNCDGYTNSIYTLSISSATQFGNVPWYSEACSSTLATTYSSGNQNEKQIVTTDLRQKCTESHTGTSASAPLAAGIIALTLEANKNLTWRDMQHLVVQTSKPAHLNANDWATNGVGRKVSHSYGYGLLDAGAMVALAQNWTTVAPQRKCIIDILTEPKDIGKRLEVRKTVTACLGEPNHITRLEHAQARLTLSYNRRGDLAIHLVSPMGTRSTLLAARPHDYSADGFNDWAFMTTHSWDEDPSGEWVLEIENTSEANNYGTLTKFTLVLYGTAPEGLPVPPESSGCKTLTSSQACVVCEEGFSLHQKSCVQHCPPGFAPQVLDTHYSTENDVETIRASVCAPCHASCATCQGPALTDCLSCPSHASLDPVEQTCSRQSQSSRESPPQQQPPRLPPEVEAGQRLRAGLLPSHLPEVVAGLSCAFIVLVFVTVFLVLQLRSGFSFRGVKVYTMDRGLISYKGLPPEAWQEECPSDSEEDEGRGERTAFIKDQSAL
# runDescription: furin cleavage Z-score vs untreated control; higher = more cleavage, active = 3.5 or more, inactive = 1 or less, 8 variable residues between constant flanks;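 note: purified furin at 1:10 enzyme:substrate in 50 mM HEPES pH 7.5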
# assayConditions: 15 min
This is one part of the list. How many sequences the whole screen found active is unknown.
Item-by-item account of furin cleavage Z-score
Write the number on its own, no unit after it.

Previously resolved entries follow.
For the sequence CARVKRTHVPAGNASASA [FS-2242] , report furin cleavage Z-score.
8.01

For the sequence CARYNRPPREAGNASASA [FS-378] , report furin cleavage Z-score.
8.69

For the sequence CARVKRRIENAGNASASA [FS-2533] , report furin cleavage Z-score.
7.07

Others:
For the sequence CAGYELQGREAGNASASA [FS-534] , report furin cleavage Z-score.
-1.1

All values here come from the supplement of paper PMC3545927.
